target: Cytochrome P450 2C19 (Homo sapiens); assay: blockers of cytochrome P450 2C19 activity – biochemical, luminescence, ADME assay, primary screen (AID 778); conditions: CYP2C19 Supersomes, luciferin-H EGE luminescence, 30 min; at 5 µM;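 note: plate controls were negative control wells for no effect and 2.5 mM tranylcypromine positive control for full effect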
Hit rate of the full screen: of about 96,000 compounds, about 20,000 (21%) were called active.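 Rule for the calls: active = CYP2C19 inhibition above a set limit at 5 µM in the primary screen (cut at about 50% in these data); inactive = the rest.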 Only a sample is shown.
One label from this list, please: TRUE for active, FALSE for inactive

Worked examples follow.
>  <compound>
O=C(O)C1CC(=O)N(Cc2cccnc2)C1 (stereo unspecified)

>  <assignedClass>
FALSE

$$$$
>  <compound>
Cc1cc(Nc2ccccc2)n(CCC#N)n1

>  <assignedClass>
FALSE

$$$$
>  <compound>
COc1ccc(C2Nc3ccccc3C(=O)N2Cc2ccccc2)cc1Cn1nnc2ccccc21 (stereo unspecified)

>  <assignedClass>
TRUE

$$$$
>  <compound>
CCOC(=O)CSC1=C(C#N)C(c2sccc2C)CC(=O)N1 (stereo unspecified)

>  <assignedClass>
FALSE

$$$$
>  <compound>
CC(=O)Nc1cccc(-c2cnc3ccccc3n2)c1

>  <assignedClass>
FALSE

$$$$
>  <compound>
O=C(CN1CCOCC1)Nc1c(-c2ccccc2)c2cc(Br)ccc2[nH]c1=O

>  <assignedClass>
FALSE

$$$$

So what was the verdict on CCCS(=O)(=O)N1CCCC(C(=O)NCCN2CCCCC2C)C1 (stereo unspecified) in this test? FALSE

So what was the verdict on Cc1cc(NC(=O)COc2ccc(Cl)cc2Cl)n(CCC#N)n1 in this test? TRUE

So what was the verdict on O=C(CN1CCCCCC1)Nc1ccc(Br)cc1Br in this test? FALSE

So what was the verdict on CCSc1nc(-c2ccc(OC)cc2)cc(-c2ccc(OC)cc2)c1C#N in this test? FALSE

So what was the verdict on COC(=O)c1ccc(COC(=O)c2c(C)nn(Cc3ccccc3Cl)c2Cl)o1 in this test? TRUE

So what was the verdict on c1ccc2c(c1)C(=NC1CCCCC1)NC2=NC1CCCCC1 in this test? FALSE

---

biological target: Cytochrome P450 2C19 (Homo sapiens) (UniProt P33261); test: blockers of cytochrome P450 2C19 activity – biochemical, luminescence, ADME assay, primary screen (AID 778); details: CYP2C19 Supersomes, luciferin-H EGE luminescence, 30 min; at 5 µM
Sequence (P33261 whole entry, looked up): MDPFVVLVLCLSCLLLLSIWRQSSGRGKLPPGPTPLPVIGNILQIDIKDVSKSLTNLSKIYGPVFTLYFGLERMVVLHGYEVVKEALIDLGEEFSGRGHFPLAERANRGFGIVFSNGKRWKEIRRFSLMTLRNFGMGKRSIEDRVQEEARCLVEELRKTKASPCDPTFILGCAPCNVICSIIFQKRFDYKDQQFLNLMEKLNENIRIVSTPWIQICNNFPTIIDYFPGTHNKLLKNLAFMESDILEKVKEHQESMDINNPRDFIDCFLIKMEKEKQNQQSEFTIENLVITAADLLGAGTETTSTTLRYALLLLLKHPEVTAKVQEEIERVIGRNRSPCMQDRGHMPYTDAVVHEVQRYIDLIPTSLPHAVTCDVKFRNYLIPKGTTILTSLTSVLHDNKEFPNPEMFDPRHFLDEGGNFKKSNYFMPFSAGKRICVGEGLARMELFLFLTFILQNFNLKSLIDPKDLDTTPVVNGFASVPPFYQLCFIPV
In all, about 96,000 compounds went through this assay and about 20,000 (21%) were called active.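 Rule for the calls: active = CYP2C19 inhibition above a set limit at 5 µM in the primary screen (cut at about 50% in these data); inactive = the rest.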 Only a sample is shown.
One label from this list, please: yes (1) (active), no (0) (inactive)

Worked examples follow.
>  <compound>
Cc1noc(C)c1S(=O)(=O)NCCc1ccc(S(N)(=O)=O)cc1

>  <assignedClass>
no (0)

$$$$
>  <compound>
CC1(C)SC2c3ccccc3C(=O)N2[C@@H]1C(=O)NCc1ccco1 (stereo not given in full)

>  <assignedClass>
yes (1)

$$$$
>  <compound>
C=CCOc1ccc(/C=N/n2cncn2)cc1OC

>  <assignedClass>
yes (1)

$$$$
>  <compound>
Cc1oc(-c2ccccc2Cl)[n+]([O-])c1C

>  <assignedClass>
no (0)

$$$$
>  <compound>
COc1cc2c(cc1OC)C(C(=O)NCc1ccco1)C1c3ccccc3CCN1C2=O (stereo not given)

>  <assignedClass>
no (0)

$$$$

Attention now shifts to the item below.
So what was the verdict on COc1ccc(Br)cc1S(=O)(=O)N1CCN=C1C in this test? no (0)

---

# maps each entry to its inhibition
target: Cytochrome P450 2C19 (Homo sapiens); assay: blockers of cytochrome P450 2C19 activity – biochemical, luminescence, ADME assay, primary screen (AID 778); details: CYP2C19 Supersomes, luciferin-H EGE luminescence, 30 min; at 5 µM; active compounds read high
In all, about 96,000 compounds went through this assay and about 20,000 (21%) were called active. The list is a sample of the results.

>  <compound>
COc1ccc(S(=O)(=O)N2CCC(C(=O)N3CCc4ccccc4C3)CC2)cc1OC

>  <inhibition>
53.6% (active)

$$$$
>  <compound>
CCCc1cc(=O)[nH]c(SCC(=O)c2cc(C)n(CCC)c2C)n1

>  <inhibition>
29.3% (inactive)

$$$$
>  <compound>
CCCc1cc(=O)[nH]c(SCC(=O)OCc2ccccc2)n1

>  <inhibition>
55% (active)

$$$$
>  <compound>
O=C(NCc1cn2ccsc2n1)Nc1cccc(Cl)c1

>  <inhibition>
13.3% (inactive)

$$$$

Which inhibition is reported for this compound? COc1ccccc1N=C(C)C1=C(O)COC1=O 27.5% (inactive)

Which inhibition is reported for this compound? COc1ccc(C2C(C#N)=C(/N=C/N3CCOCC3)OC3=C2C(=O)CC(C)(C)C3)cc1OC (stereo unspecified) 21% (inactive)

---

target: Cytochrome P450 2C19 (Homo sapiens) (UniProt P33261); assay: blockers of cytochrome P450 2C19 activity – biochemical, luminescence, ADME assay, primary screen (AID 778); conditions: CYP2C19 Supersomes, luciferin-H EGE luminescence, 30 min; at 5 µM;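 note: plate controls were negative control wells for no effect and 2.5 mM tranylcypromine positive control for full effect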
The campaign covered roughly 96,000 compounds. About 20,000 (21%) were called active.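 Rule for the calls: active = CYP2C19 inhibition above a set limit at 5 µM in the primary screen (cut at about 50% in these data); inactive = the rest.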 Only a sample is shown.
One label from this list, please: True for active, False for inactive

Worked examples follow.
>  <molecule>
O=C(CN1CCN(c2nc(-c3ccccc3)cs2)CC1)NCc1ccc2c(c1)OCO2

>  <assaySystem>
Cytochrome P450 2C19 (Homo sapiens) (UniProt P33261)

>  <assignedClass>
True

$$$$
>  <molecule>
CC(CNC(=O)c1ccc(Br)o1)NC(=O)c1ccc(Br)o1 (stereo unspecified)

>  <assaySystem>
Cytochrome P450 2C19 (Homo sapiens) (UniProt P33261)

>  <assignedClass>
False

$$$$
>  <molecule>
CSCC[C@H](NC(=O)NCc1cccs1)C(=O)O

>  <assaySystem>
Cytochrome P450 2C19 (Homo sapiens) (UniProt P33261)

>  <assignedClass>
False

$$$$

Attention now shifts to the item below.
So what was the verdict on C/C(=C\c1ccco1)C1Nc2cccc3cccc(c23)N1 in this test? True

---

target: Cytochrome P450 2C19 (Homo sapiens) (UniProt P33261); experiment: blockers of cytochrome P450 2C19 activity – biochemical, luminescence, ADME assay, primary screen (AID 778); conditions: CYP2C19 Supersomes, luciferin-H EGE luminescence, 30 min; at 5 µM;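 note: plate controls were negative control wells for no effect and 2.5 mM tranylcypromine positive control for full effect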
Out of some 96,000 compounds screened, about 20,000 (21%) were called active.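 How the source made its calls: active means CYP2C19 inhibition above a set limit at 5 µM in the primary screen (cut at about 50% in these data); inactive means the rest.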 These entries were drawn from the full list.
One label from this list, please: active, inactive

So what was the verdict on CC(C)C(c1nnnn1C1CCCC1)N1CCN(c2ccccc2F)CC1 (centres undefined) in this test? inactive

So what was the verdict on Cn1ncc2c(Nc3cccc4ccccc34)ncnc21 in this test? inactive

So what was the verdict on CC(C)(C)NC(=O)CN(Cc1cccs1)C(=O)CNS(=O)(=O)c1ccccc1 in this test? inactive

So what was the verdict on CC(=NCC1CCCO1)c1c(O)[nH]c(=O)[nH]c1=O (centres undefined) in this test? inactive

So what was the verdict on COc1ccc(-c2cc(C(=O)n3cnc4ccccc43)c3ccccc3n2)cc1 in this test? active

So what was the verdict on Cc1ccc(NC(=O)CN(C)S(=O)(=O)c2cnc[nH]2)cc1C in this test? active

So what was the verdict on COc1ccc(N2CCN(C(c3cc4ccc(C)cc4[nH]c3=O)c3nnnn3C3CCCC3)CC2)cc1 (centres undefined) in this test? active

So what was the verdict on Clc1ccccc1CSc1nnc(-c2ccco2)c(-c2ccco2)n1 in this test? inactive

---

# maps each entry to its inhibition
molecular target: Cytochrome P450 2C19 (Homo sapiens) (UniProt P33261); assay: blockers of cytochrome P450 2C19 activity – biochemical, luminescence, ADME assay, primary screen (AID 778); details: CYP2C19 Supersomes, luciferin-H EGE luminescence, 30 min; at 5 µM; active compounds read high;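 note: plate controls were negative control wells for no effect and 2.5 mM tranylcypromine positive control for full effect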
Hit rate of the full screen: of about 96,000 compounds, about 20,000 (21%) were called active. A selection follows.
Express the result in % but write the number alone.

Worked cases, inhibition given:
>  <compound>
CCNc1nc(SCCOc2ccccc2)nc(N(C)C)n1

>  <assaySystem>
Cytochrome P450 2C19 (Homo sapiens) (UniProt P33261)

>  <u>
%

>  <reading>
12.3

$$$$
>  <compound>
O=C1CC(c2ccccc2)C(=O)N1c1cccc(O)c1 (stereo not given)

>  <assaySystem>
Cytochrome P450 2C19 (Homo sapiens) (UniProt P33261)

>  <u>
%

>  <reading>
60.7

$$$$
>  <compound>
COC(=O)c1ccc(OCC(=O)NC(C)(C)C)cc1

>  <assaySystem>
Cytochrome P450 2C19 (Homo sapiens) (UniProt P33261)

>  <u>
%

>  <reading>
67.1

$$$$
>  <compound>
Cc1ccc(C(=O)N2CCN(C3CCCCC3)CC2)s1

>  <assaySystem>
Cytochrome P450 2C19 (Homo sapiens) (UniProt P33261)

>  <u>
%

>  <reading>
52.8

$$$$

Here's the next entry for you.
Which inhibition is reported for this compound? COC(=O)c1cc(C(=O)OC)cc(N2C(=O)CC(N3CCN(c4ccccc4)CC3)C2=O)c1 (stereo not given) 12.1
